Each entry below lists one item and its recorded TGI value.
test system: UO-31 renal; experiment: NCI tumour cell line growth inhibition, 48 h

Worked cases, TGI given:
compound=Oc1[nH]c2ccccc2c1N=NC(=S)Nc1ccc(Cl)cc1 result_type=TGI result="> 100 µM"
compound="CCCCN(CC)CC(C(C)=O)c1c(O)c2ccccc2oc1=O (stereo unspecified)" result_type=TGI result="> 100 µM"
compound="Cc1c2c(OCC3CCCCO3)nn(C)c(=O)c2c(C)n1-c1ccccc1 (stereo unspecified)" result_type=TGI result="31.2 µM"
compound="COc1cc2c(c(O)c1OC)C(=O)C(Cc1ccc(O)cc1)CO2 (stereo unspecified)" result_type=TGI result="> 100 µM"
compound=CCNC(=O)c1noc(-c2cc(C(C)C)c(O)cc2O)c1-c1ccc(CN2CCOCC2)cc1 result_type=TGI result="> 100 µM"

Ask: Query for UO-31 renal: what TGI does the record show for `O=C(O)[C@H](c1ccccc1)[C@@H](C(=O)O)c1ccccc1` ?
Reply: > 100 µM

Ask: Query for UO-31 renal: what TGI does the record show for COC(=O)C1(C)Cc2cc(OC(C)=O)c(OC(C)=O)cc2N1 (stereo unspecified) ?
Reply: 21.9 µM

---

system: SK-MEL-5 melanoma; test: NCI tumour cell line growth inhibition, 48 h
Each entry below lists one item and its recorded TGI value.
Give just the numeric value; µM need not be written.

compound=COc1nc(C#CC(C)(C)C)nc(OC)n1 system_name="SK-MEL-5 melanoma" quantitative_result=39
compound=COc1cnc2c(c1)C(=O)c1c-2n(CCCN2CCN(C)CC2)c(=O)c2cc([N+](=O)[O-])ccc12 system_name="SK-MEL-5 melanoma" quantitative_result=2.64
compound="Cc1c2c(OCC3CCCCO3)nn(C)c(=O)c2c(C)n1-c1ccccc1 (stereo unspecified)" system_name="SK-MEL-5 melanoma" quantitative_result=29.1
compound="CN(C)CC1CCC(CN(C)C)C1=O (stereo unspecified)" system_name="SK-MEL-5 melanoma" quantitative_result=15.9

Ask: Look up TGI for this compound: COC1=C(C)C(=O)c2c(c(COC(N)=O)c3n2CC(OC(C)=O)C3OC(C)=O)C1=O (stereo unspecified)
Reply: 0.392

---

Each entry below lists one item and its recorded TGI value.
system: COLO 205 colon; assay: NCI tumour cell line growth inhibition, 48 h

Worked cases, TGI given:
molecule="COc1ccc(/C(=N\\NC(=S)NN)C(c2ccc(OC)cc2)C2C(=O)Oc3ccccc32)cc1 (stereo not given)" system_name="COLO 205 colon" result="> 100 µM"
molecule=CSC(=NCCc1c[nH]c2ccccc12)NC#N system_name="COLO 205 colon" result="> 100 µM"
molecule="C/C(=N/NC(=O)C[N+](C)(C)C)C(CN(C)C)C(=O)Nc1ccccc1 (stereo not given)" system_name="COLO 205 colon" result="> 100 µM"
molecule=CCCCn1c(-c2ccc(C(=O)O/N=C(\N)c3ccc4c(c3)OCO4)cc2)nc(-c2ccccc2)c1-c1ccccc1 system_name="COLO 205 colon" result="11 µM"
molecule=CC(=O)OC(Cn1cncn1)(Cn1cncn1)c1ccc(Cl)cc1Cl system_name="COLO 205 colon" result="> 100 µM"

Ask: Look up TGI for this molecule: `O=c1c(F)cn(Cc2ccccc2CCl)c(=O)n1Cc1ccccc1CCl`
Reply: 3.52 µM

Ask: Look up TGI for this molecule: `N#Cc1c(-c2ccccc2)cc(-c2ccc(Cl)cc2)[nH]c1=S`
Reply: 71.1 µM

Ask: Look up TGI for this molecule: `CC(C)(C)OC(=O)NCCCCCCCn1c2c(c3ccccc3c1=O)C(=O)c1ccccc1-2`
Reply: > 100 µM

Ask: Look up TGI for this molecule: `COc1ccc(CN2CCC/C=C/CC(Cl)(Cl)C2=O)cc1`
Reply: 41.2 µM

Ask: Look up TGI for this molecule: `CC(C)(Oc1ccc(/C=C/C(=O)c2ccc(Cl)cc2)cc1)C(=O)Nc1c(Cl)cccc1Cl`
Reply: 40.2 µM
